- subject_of_test: Serine/threonine-protein kinase Chk2 (Homo sapiens) (UniProt O96017)
- Sequence (O96017 whole entry): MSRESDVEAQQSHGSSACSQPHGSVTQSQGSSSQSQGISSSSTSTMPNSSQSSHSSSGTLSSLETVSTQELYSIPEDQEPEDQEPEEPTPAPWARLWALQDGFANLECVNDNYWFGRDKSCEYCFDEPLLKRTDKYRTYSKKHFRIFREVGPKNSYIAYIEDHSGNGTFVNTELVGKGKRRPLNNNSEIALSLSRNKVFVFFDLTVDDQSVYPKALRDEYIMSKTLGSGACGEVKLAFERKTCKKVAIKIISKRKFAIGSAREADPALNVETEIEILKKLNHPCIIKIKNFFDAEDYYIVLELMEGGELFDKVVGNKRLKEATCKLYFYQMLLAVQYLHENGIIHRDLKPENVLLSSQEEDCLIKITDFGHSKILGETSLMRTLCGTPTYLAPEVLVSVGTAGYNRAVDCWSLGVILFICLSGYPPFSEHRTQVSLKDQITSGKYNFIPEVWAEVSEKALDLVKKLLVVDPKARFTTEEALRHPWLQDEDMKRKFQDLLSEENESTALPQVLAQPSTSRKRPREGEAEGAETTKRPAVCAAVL
- test_settings: at 1 µM
Recorded residual activity, one value per entry.
Just the number in %, nothing appended.

Solved entries (count: 8):
smiles_representation	quantity_kind	value_observed
O=C(Nc1nc2ccccc2n1CCN1CCOCC1)c1cccc([N+](=O)[O-])c1	residual activity	79
Nc1ncnc2[nH]nc(Nc3ccc(F)cc3)c12	residual activity	73
Nc1nc(Nc2ccc(S(N)(=O)=O)cc2)nn1C(=O)c1c(F)cccc1F	residual activity	52
O=C1Nc2ccccc2/C1=C\c1c(Cl)[nH]c2ccccc12	residual activity	75
Oc1cccc(-c2nc(N3CCOCC3)c3oc4ncccc4c3n2)c1	residual activity	100
CCN(CC)CCNC(=O)c1c(C)[nH]c(/C=C2\C(=O)Nc3ccc(Cl)cc32)c1C	residual activity	6
O=C1NC(=O)c2c1c1c3ccccc3[nH]c1n1cncc21	residual activity	23
Cn1c2ccccc2c2c3c(c4c5ccccc5n(CCC#N)c4c21)CNC3=O	residual activity	25

### Prompt Query: residual activity; subject: `O=C1NC(=O)C(c2c[nH]c3ccccc23)=C1c1c[nH]c2ccccc12`
### Response 73

### Prompt I would be grateful if you could share the reported residual activity for `NC(=O)c1cccc(-c2cc(Nc3ccc(OC(F)(F)F)cc3)ncn2)c1` .
### Response 95

### Prompt Find the recorded residual activity belonging to `O=C(c1ccccc1)c1ccc(N2CCOCC2)cc1O` and report it.
### Response 86

---

- subject_of_test: Aurora kinase C (Homo sapiens)
- test_settings: at 1 µM
// label = 1 if residual activity is not less than 60%, otherwise -1

smiles_representation	class_label
O=C(c1ccccc1)c1ccc(N2CCOCC2)cc1O	1

### Prompt # check: residual activity of `O=C1C(Cl)=C(N2C(=O)CCC2=O)C(=O)c2ccccc21` is greater than or equal to 60%
### Response 1

### Prompt API: above_or_equal(metric=residual activity, cutoff=60%) for item `Nc1nc(Nc2ccc(S(N)(=O)=O)cc2)nn1C(=O)c1c(F)cccc1F`
### Response -1

### Prompt Say whether `Nc1ncnc2c1c(-c1ccc(Oc3ccccc3)cc1)cn2C1CCCC1` shows residual activity of 60% or more.
### Response 1

---

- subject_of_test: Protein-tyrosine kinase 6 (Homo sapiens) (UniProt Q13882)
- Sequence (Q13882 whole entry, looked up): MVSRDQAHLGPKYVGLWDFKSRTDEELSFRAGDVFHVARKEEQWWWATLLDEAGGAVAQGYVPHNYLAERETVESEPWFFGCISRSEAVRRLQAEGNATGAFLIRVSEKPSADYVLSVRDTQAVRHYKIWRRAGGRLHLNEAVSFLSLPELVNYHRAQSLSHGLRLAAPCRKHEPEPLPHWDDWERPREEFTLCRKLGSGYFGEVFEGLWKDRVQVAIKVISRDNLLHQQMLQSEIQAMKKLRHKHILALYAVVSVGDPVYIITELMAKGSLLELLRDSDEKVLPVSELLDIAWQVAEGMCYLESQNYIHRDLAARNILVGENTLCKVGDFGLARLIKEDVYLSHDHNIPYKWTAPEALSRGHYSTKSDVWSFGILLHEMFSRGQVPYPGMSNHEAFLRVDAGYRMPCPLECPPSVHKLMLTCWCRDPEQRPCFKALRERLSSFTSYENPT
- test_settings: at 10 µM
Each entry gets NOT MET if its residual activity stays under 30%, and MET if its residual activity is 30% or above.

Recorded results for 3 compounds are shown here.
smiles_representation	class_label
CCCC(=O)Oc1ccc2[nH]c(C(=O)c3cc4ccccc4[nH]3)cc2c1	MET
O=C1Nc2ccc(Cl)cc2/C1=C/c1cc(Cl)c(O)c(Cl)c1	MET
N#C/C(=C1/Nc2ccccc2S1)c1ccnc(NCCc2cccnc2)n1	MET

Could you now consider this next compound?
### Prompt Item `O=C(O)/C=C/c1cc(Br)c(Br)c(Br)c1Br` with residual activity of 30% or above?
### Response MET

---

- subject_of_test: ALK tyrosine kinase receptor (Homo sapiens)
- test_settings: at 10 µM
The entries below come with measured residual activity values attached.
Kindly provide the numeric value in % only, without the unit symbol.

smiles_representation	subject_of_test	quantity_kind	value_observed
O=c1cc(N2CCOCC2)oc2c(-c3ccccc3)cccc12	ALK tyrosine kinase receptor (Homo sapiens)	residual activity	53
N#Cc1c(NC(=O)c2cccc3ccccc23)sc2c1CCCC2	ALK tyrosine kinase receptor (Homo sapiens)	residual activity	91
CC(C)(C)c1nc2c3ccc(F)cc3c3c(=O)[nH]ccc3c2[nH]1	ALK tyrosine kinase receptor (Homo sapiens)	residual activity	11
COc1ccc(CNC(=O)Nc2ncc([N+](=O)[O-])s2)cc1	ALK tyrosine kinase receptor (Homo sapiens)	residual activity	64
O=C1NC(=O)C(c2cn(CCCn3ccnc3)c3ccccc23)=C1Nc1ccccc1	ALK tyrosine kinase receptor (Homo sapiens)	residual activity	65
O=C1NC(=O)c2c1c1c3ccccc3[nH]c1n1cncc21	ALK tyrosine kinase receptor (Homo sapiens)	residual activity	48

### Prompt Field request: residual activity | item: `COc1ccc2c(c1)c(C1=C(c3c[nH]c4ccccc34)C(=O)NC1=O)cn2CCCN(C)C`
### Response 64

### Prompt Reported residual activity, compound `O=C1NC(=O)C(c2c[nH]c3ccccc23)=C1c1c[nH]c2ccccc12` : ____
### Response 44

### Prompt May I ask what residual activity has been recorded for `Cn1sc(=O)n(Cc2ccccc2)c1=O` ?
### Response 71

### Prompt Requested field: residual activity. Item: `COc1ccc(Cl)cc1NC(=O)Nc1cc(C)nc2ccccc12`
### Response 58

### Prompt I am curious: what residual activity value has been reported for `Cc1cc(C)c(/C=C2\C(=O)Nc3ccccc32)[nH]1` ?
### Response 13

From: ChEMBL document CHEMBL2218924
